- ASSAY TEXT: yeast display, Sf9 membrane polyspecificity reagent, FACS + sequencing; frameworks hold sequencing errors

CHAIN	polyreactivity (PSR sort gate)
QVQLVESGGGLVQAGGSLRLSCAASGRIFYTNVMGWYRQAPGKERELVAAISTGGGRTYYADSVKGRFTISRDNAKNTVYLQMNSLKPEDTAVYYCAASGRYAIVWGDQYYGYYYWGQGTQVTVSS	high polyreactivity
QVQLVESGGGLVQAGGSLRLICAASGRSFTSNAMGWYRQAAGKEWELVAAINFRGDSTYYADSVKGRFTISRDNAKNTVYLQMNSLKREDTAVYYCAAVGGRSSYRLDYWGQGTQVTVSS	low polyreactivity
QVQLVESGGGLVQAGGSLRLSCAASRLTFRYYAMGWYRQAPGKERELVASISSSSGSTYYADSVKGRFTISRDNAKNTVYFQMNSLKPEDTAVYYCNARGWTLGADFGYWGQGTQVTVSS	low polyreactivity
QVELVESCGGLVQAGGSLRLSCAASGSTFTRNGMGWYSLAPGKEREMVAAISSGGSTNYADSVKGRFTISRDNAKNTVDFQKNSLQPEDTAVYYCAVDYRHSSSWNAGPWQMYYWGQGTQVTVSS	low polyreactivity
QVQLVESGGGLVQAGGSLRLSCAASGSIFARYTMGWYRQAPGKERELVAAISSSGTSTYYADSVKGRFTISRDNAKNTVYLQMNSLKPEDTAVYYCAADWYYHYGYWGQGTQVTVSS	high polyreactivity
QVQLVESGGGLVQAGGSLRLSCAASGIIFYYYAMGWYRQAPGKERELVAAISWSGGSTYYADSVKGRFTISRDNAKNTVYLQMNSLKPEDTAVYYCAADYTGHIYYYWGQGTQVTVSS	low polyreactivity
QVQLVESGGGLVQAGGSLRLSCAASGSIFPDYAMGWYRQAPGKERELVAAITWRDDSSYYADSVKGRFTISRDNAKNTVYLQMNSLKPEDTAVYYCNASALDPLYAKDDYWGQGTQVTVSS	low polyreactivity
QVQLQESGGGLVQAGGTLRLSCAASGSIYDDTYMGWYRQAPGKERELVATIDSGSTTNYADSVKGRITISRDNAKKTVYLQMNSLKPEDTAVYYCAAADSHIDYFDYWGQGTQVTVSS	low polyreactivity
QVQLVESGGGLVQAGGSLRLSCAASVYTSNYYAMGWYRQAPGKEREFVAAITASSVSTYYADSVKGRFTISRDNAKNTVYVQMNSLKPEDTAVYYCAVVYISYTSWLWVYWLVDFDYWGQGTQVTVSS	low polyreactivity
QVQLVESGGGLVQAGGSLRLSCAASGRTFGVYAMGWYRQAPWKERELVAGIRWRGGSTYYADSVKGRFTISRDNAKNTVYLQMNSLKPEDTAVYYCAADVYLVKYDYWGQGTQVTVSS	low polyreactivity
QVQLVESGGGLVQAGGSLRLSCAASGRIFSSYDMGWYRQAPGKEPELVAAISRSGARTYYADSVKGRFTISRDNAKNTVYLQMNSLKPEDTAVYYCAAEFRSWGGYRYRFNYWGQGTQVTVSS	high polyreactivity
QVQLVESGGGLVQAGGSLRLSCAASGFTFTSYTMGWYRQAPGKERELVAAISYSGGNTYYADSVKGRFTISRDNAKNTVYLQMNSLKQEDTAVYYCAARYWYDSSNYSYDYWGQGTQVTVSS	low polyreactivity
QVQLVESGGGLVQAGGSLRLSCAASGSTFGWYAMGWFRQAPGKERELVAAITSGGSTKYADSVKGRFTISRDNAKNTVYLQMNSLKPEDTAVYYCATVRGYYSPVQVIGYFWGQGTQVTVSS	high polyreactivity
QVQLVESGGGLVQAGGSLRLRCAASGSIFKYYAMGWYRQAPGTERELVAAITWSGTRTYYADSVKGRFTISRDNAKNTVYVQMNSLKPEDTAVYYCNAPRYLYSAGRFNYWGQGTQVTVSS	high polyreactivity
QVQLVESGGGLVQAGGSLRLSCAASGFIFHWNAMGWYRQAPGKERELVAAITWRGTNTYYADSVKGRFTISRDNAKNTVYLQMNSLKPEDTAVYYCAGTRNPWPTSFDYWGQGTQVTVSS	low polyreactivity
QVQLVESGGGLVQAGGSLRLSCAASGSTFQGNAMGWYRHAPGKERELVAAISRSGGSTYADSVKGRFTISRDNAKNTVYLQINSLKPEDTAVYYCAAYSGVGYLWFDYWGQGTQVTVSS	low polyreactivity
QEQLHESGGGLVQAGGSLRLSCAASRTISVTYNMGWYRQATGKEREFVAGNSTGDTTNYADSVKGRFTISRDNAKNTVYLQMNSLKPEDTAVNYCSAHIYRQDHFYYWGQGTQVTVSS	low polyreactivity
QVQLVESCGGLVQAGGSLRLSCAASGRIFLVYAMGWYRQAPGKERELVAAISWSTGSTYYADSVKGRFTISRDNAKNTVYLQMNSLKPEDTAVYYCAAEPELDEFEHDYWGQGTQVTVSS	low polyreactivity
QVQLVESGGGLVHAGGSLRLSCAAYGRTFYTYAMGWYSQAPGKVRELVAAISSSGSTYYADSVKGRFTISRDNAKYTVYLQMNSLKPEDTAVYYCNARTSRYRRGGDSWGQGTQVTVSS	high polyreactivity
QVQLVESGGGLVQAGGSLRLSCAASGRTLYIYAMGWYRQAPGKERELVAAITRRGDSTYYADSVKGRFTISRDNAKNTVYLQMNSLKPVDTAVYYCAADFPDTSSQYDPAYEYWGQGTQVTVSS	low polyreactivity
QVQLVESGGGLVQAGGSLRLSCAASGIIFPYNAMGWYTQAPGKERELVAAITGGGSTYYADSVKGRFTISRDNAKNTVYLQMNSLKPEDTAVYYCAADRSGPGYDYWGQGTQVTVSS	low polyreactivity

---

- ASSAY TEXT: yeast display, Sf9 membrane polyspecificity reagent, FACS + sequencing; frameworks hold sequencing errors

CHAIN	polyreactivity (PSR sort gate)
QVQLVESGGGLVQAGGSLRISCAASGSTFYIYSMGWYRQAPGKERELVARISGSGGSTYYADSVKVRFTISRDYAKNTVYLQMNSLKPEDTAVYYCAADDIYKYYLYYAFPYYRYDYWGLGTQVTVSS	low polyreactivity
QVQLVESGGGLVQAGGSLRLICAASGSTLIWNAMGWYRQAPGKEMELVAVISFSGVSTYYADSVKGRFTISRDNAKNTVYLQMNSLKPEDTAVYYCAAGRYLYNYYGYVDKYGYWGQGTQVTVSS	low polyreactivity

---

- ASSAY TEXT: yeast display, Sf9 membrane polyspecificity reagent, FACS + sequencing; frameworks hold sequencing errors

CHAIN	polyreactivity (PSR sort gate)
QVQLVESGGGLVQEGGSLRLSCAASGIIFPVYDMGWYRQAPGKERELVASITDSGGSTSYADSVKGRFTLSRDNAKNTVYLQMNSLKPEDTAVYYCAVTDSDTNYYGYLSYDYWGQGTQVTVSS	low polyreactivity
QVQLEESGGGLVQAGGSLRLSCAASGGIFYEYAMGRYRQAPGKERELVATISFNVASTYADSVKGRFTISRDNAKNTVFLQMNSMKPEDTAVYYCIADTYWYRDSRYDYWGQGTQVTVSS	low polyreactivity
QVQLVESGGGLVQAGGSLRLSCAASGSTFAQYAMGWYRQAPAKERELVAVISKRGGRTYYADSVKGRFTISRDNGKNTVYLQMNSLKPEDTAGYYCAADSGGPGYAMDYWGQGTQVTVSS	high polyreactivity
QVQLVESGGGLVQAGGSLRLSCAASGIIFSSNAMGWYRPAPGKERELVAAISNTGRTNYADSVKGRFTISRDNEKNTVYLQMNSLKPEDTAVYYCDARLSRRYYSYYYWGQGTQVTVSS	high polyreactivity
QVQLVESGGGLVQAGGSLRLRCAASGRTFRVYAMGWYRQAPGKERELVATITSSGGSTYYADSVKGRFTISRDNAKNTVYLQMNSLKPEDTAVYYCNVSVYNNYDSSYYYWGQGTQVTVSS	low polyreactivity
QVQIVESGGGLVQAGGSLRLSCAAYGSIFVRNVMGWYRQAPGKERELVATIRYRGGSTYYADSVKGRFTISRDNAKNTVYLQMNSLKPEDTAVYYCNARYLWADEYYYWGQGTQVTVSS	low polyreactivity
QVQLVESGGGLVQAGGSLRLSCAASGRIFGGYTMGWYRQAPGKEREFVATISRSSGSTYYADSVKGRFTISRDNAKNTVYLQMNSLKPEDTAVYYCAAVYLYATGYDYWGQGTQVTVSS	high polyreactivity
QVQLVESGGGLVQAGGSLRLSCAASGSTFELYAMGWYRQAPGKERDFVAAITYDSTYYADSVKGRFTISRDNAKNTVYLQMNSLKPEDTAVYYCAAAYWHYYYGWDMYYWGQGTQVTVST	high polyreactivity
QVQLVESGGGLVQAGGILRFSCAASGRISVVNAMAWFRQAPGKARELVAAIRRASTNYADSVKGRFTISRDNAKNTVYLQMNSLKPEDTAVYYCAARVYGINIFEYWGQGTQVTLSS	high polyreactivity
QVQLVESGGGLVQAGGSLRLSCAASGRIFYSNVMGWYRQAPGKERELVAAIRFSGGGTYYADSVKGRFTITRDNAKNTVYLQMNSLKPEDTAVYYCAAEYYLRVSGRTYVTSHDYWGQGTQVTVSS	high polyreactivity
QVQLVESGGGLVQAGGSLRLSCAASGFTFKNYAMGWYRQAPGKEREFVATISSRGGSTYYADSVKGRFTISRDNAKNTVYLQMNSLKPEDPAVYYCAARYFSYGRSRQRHYYWGQGTQVTVSS	high polyreactivity

Hello, the source for this data is the nanobody polyreactivity screen of Harvey et al. (2022), in case you need it.
